Recorded measurements of Proliferative response, stimulation index, one per entry
# Tested on: RGP-specific TCL
# Test Method Notes: TCL proliferation assay (3H-thymidine incorporation, stimulation index)
# Type: cell-based, human
# Condition: Subject 12 TCL, Lol p 1 series (Table 3); peptides 10 μg/ml; RGP and Lol p 1 maximal response
Give the figure only, with no unit attached.

Example cases with answers are listed next.
* Lol p 1 peptide 145-164: synthetic 20-mer, amino acids 145-164 of Lol p 1A (SEQ ID NO:1) (GTKPTFHVEKASNPNYLAIL; Lolium perenne) | 4.5
* Lol p 1 peptide 46-65: synthetic 20-mer, amino acids 46-65 of Lol p 1A (SEQ ID NO:1) (VDKAPFNGMTGCGNTPIFKD; Lolium perenne) | 4.0
* Lol p 1 peptide 118-137: synthetic 20-mer, amino acids 118-137 of Lol p 1A (SEQ ID NO:1) (KGEEQKLRASAGELELQFRR; Lolium perenne) | 2.5

From here, focus on the item given below.
Incoming: For the substance LDAKSTWYGKPTGAGPKDNG (Lolium perenne) [Lol p 1 peptide 19-38] , give its reported Proliferative response, stimulation index.
Outgoing: 7.5

Numbers sourced from patent US20060084789A1.
